target_or_system: CDK2 (Homo sapiens)
Construct: endogenous in cells; host or cells: MDA-MB-231
run_description: CDK protein degradation activity (Western blotting), CDK2
Type: cell-based
applied_conditions: MDA-MB-231 cells, 0.1 μM, 16 hours, Western blot
property_measured: Enzyme degradation CDK2 (% remaining) @ 0.1 μM (%)

1. O=C1CC[C@H](N2C(=O)c3ccc(N4CCC(C(=O)N5CCC(CN6CCN(c7ccc(Nc8ncnc9c8ncn9C8CC(NC(=O)Cc9ccccc9)C8)cc7)CC6)CC5)CC4)cc3C2=O)C(=O)N1 (stereo partly shown)
2. CC(=O)NC1CC(n2cnc3c(NCC4CCN(CC5CCN(c6cccc7c6C(=O)N([C@H]6CCC(=O)NC6=O)C7=O)CC5)CC4)ncnc32)C1 (stereo partly shown)
Which record shows the lower Enzyme degradation CDK2 (% remaining) @ 0.1 μM: the first, 1 , or the second, 2 ? // output: label of the selected item
1
(1: 60%, 2: 100%)

1. CC(=O)N[C@H]1C[C@@H](n2cnc3c(NCC4CCN(CC5CCN(C(=O)CNc6ccc7c(c6)C(=O)N([C@H]6CCC(=O)NC6=O)C7=O)CC5)CC4)ncnc32)C1
2. Cc1cccc(C(=O)NC2CC(n3cnc4c(Nc5ccc(N6CCN(C7CC8(CCN(C(=O)C9CCN(c%10ccc%11c(c%10)C(=O)N([C@H]%10CCC(=O)NC%10=O)C%11=O)CC9)CC8)C7)CC6)cc5)ncnc43)C2)n1 (stereo partly shown)
Which record shows the lower Enzyme degradation CDK2 (% remaining) @ 0.1 μM: the first, 1 , or the second, 2 ? // output: label of the selected item
2
(2: 60%, 1: 100%)

a. Cc1cccc(C(=O)N[C@H]2C[C@@H](n3cnc4c(Nc5ccc(N6CCN(C(=O)CNc7cccc8c7C(=O)N([C@H]7CCC(=O)NC7=O)C8=O)CC6)cc5)ncnc43)C2)n1
b. Cc1cccc(C(=O)N[C@H]2C[C@@H](n3cnc4c(NC5CCN(CCCN6CCN(c7ccc8c(c7)C(=O)N([C@H]7CCC(=O)NC7=O)C8=O)CC6)CC5)ncnc43)C2)n1 (racemic)
Which value of Enzyme degradation CDK2 (% remaining) @ 0.1 μM is greater, the one for a or the one for b ? // output: label of the selected item
a

* * *

target_or_system: CDK2 (Homo sapiens)
Construct: endogenous in cells; host or cells: MDA-MB-231
run_description: CDK protein degradation activity (Western blotting), CDK2
Format: cell-based
applied_conditions: MDA-MB-231 cells, 1 μM, 16 hours, Western blot
property_measured: Enzyme degradation CDK2 (% remaining) @ 1 μM

Recorded Enzyme degradation CDK2 (% remaining) @ 1 μM for O=C(COc1ccc2c(c1)C(=O)N(C1CCC(=O)NC1=O)C2=O)NC[C@H]1CC[C@H](CN2CCN(c3ccc(Nc4ncnc5c4ncn5[C@H]4C[C@@H](NC(=O)Cc5ccccc5)C4)cc3)CC2)CC1 (stereo partly drawn) , please?
100/100/100%

Proceed to Cc1cccc(C(=O)NC2CC(n3cnc4c(NCCCN5CCN(CC6CCN(C(=O)CNc7cccc8c7C(=O)N([C@@H]7CCC(=O)NC7=O)C8=O)CC6)CC5)ncnc43)C2)n1 (stereo partly drawn)
50%

Proceed to O=C1CC[C@H](N2C(=O)c3cccc(CCCN4CCC(CN5CCN(c6ccc(Nc7ncnc8c7ncn8C7CC(NC(=O)c8cccc(F)n8)C7)cc6)CC5)CC4)c3C2=O)C(=O)N1 (stereo partly drawn)
30/30/30%

* * *

target_or_system: CDK2 (Homo sapiens)
Construct: endogenous in cells; host or cells: MDA-MB-231
run_description: CDK protein degradation activity (Western blotting), CDK2
Assay type: cell-based
applied_conditions: MDA-MB-231 cells, 0.1 μM, 16 hours, Western blot
Protocol: In order to evaluate the CDK protein degradation activity of the compounds according to the present invention, the following experiment was conducted. MDA-MB-231 cells were seeded at 5×10^5 cells per well in a 6-well plate. The next day, the compounds were treated in each well to achieve final concentrations of 100 nM, 1 μM, and 10 μM. […] Cell lysates were quantified and separated by size using sodium dodecyl sulfate-polyacrylamide gel electrophoresis (SDS-PAGE). […]
property_measured: Enzyme degradation CDK2 (% remaining) @ 0.1 μM (%)

O=C1CC[C@@H](c2ccc(OCC(=O)N3CCC(CN4CCN(c5ccc(Nc6ncnc7c6ncn7C6CC(NC(=O)Cc7ccccc7)C6)cc5)CC4)CC3)cc2)C(=O)N1 (some centres unmarked) [Compound 202]    30

I. O=C1CC[C@H](N2C(=O)C=C(N3CCC(C(=O)N4CCC(CN5CCN(c6ccc(Nc7ncnc8c7ncn8[C@H]7C[C@@H](NC(=O)Cc8ccccc8)C7)cc6)CC5)CC4)CC3)C2=O)C(=O)N1 [Compound 189]
II. Cc1cccc(C(=O)NC2CC(n3cnc4c(NCc5cccc(N6CCN(C(=O)COc7cccc8c7C(=O)N([C@H]7CCC(=O)NC7=O)C8=O)CC6)c5)ncnc43)C2)n1 (some centres unmarked) [Compound 128]
Which value of Enzyme degradation CDK2 (% remaining) @ 0.1 μM is greater, the one for I or the one for II ? // output: label of the selected item
II
(II: 90%, I: 30%)

* * *

target_or_system: CDK2 (Homo sapiens, UniProt P24941)
Construct: endogenous in cells; host or cells: MDA-MB-231
run_description: CDK protein degradation activity (Western blotting), CDK2
Format: cell-based
applied_conditions: MDA-MB-231 cells, 10 μM, 16 hours, Western blot
property_measured: Enzyme degradation CDK2 (% remaining) @ 10 μM (%)

Cc1cccc(C(=O)N[C@H]2C[C@@H](n3cnc4c(Nc5ccc(N6CCN(CC7CCN(C(=O)C8CCN(c9cc%10c(cc9F)C(=O)N([C@H]9CCC(=O)NC9=O)C%10=O)CC8)CC7)CC6)cc5)ncnc43)C2)n1    60

a. Cc1cccc(C(=O)N[C@H]2C[C@@H](n3cnc4c(NCCCN5CCN(CC6CCN(C(=O)COc7cccc([C@@H]8CCC(=O)NC8=O)c7)CC6)CC5)ncnc43)C2)n1
b. O=C1CC[C@H](n2nnc3ccc(N4CCN(CC5CCN(c6ccc(Nc7ncnc8c7ncn8C7CC(NC(=O)Cc8ccccc8)C7)cc6)CC5)CC4)cc3c2=O)C(=O)N1 (stereo partly shown)
c. Cc1cccc(C(=O)NC2CC(n3cnc4c(NCCC5CCN(CC6CCN(c7ccc8c(c7)C(=O)N([C@H]7CCC(=O)NC7=O)C8=O)CC6)CC5)ncnc43)C2)n1 (stereo partly shown)
d. Cc1cccc(C(=O)N[C@H]2C[C@@H](n3cnc4c(NCc5ccc(N6CCN(CC7CCN(c8ccc9c(c8)C(=O)N([C@H]8CCC(=O)NC8=O)C9=O)CC7)CC6)cc5)ncnc43)C2)n1
rank_up(items): orders items by reported Enzyme degradation CDK2 (% remaining) @ 10 μM in ascending numerical order. API: response body holds the labels in the requested order.
b, d, c, a

* * *

target_or_system: CDK9 (Homo sapiens, UniProt P50750)
Construct: endogenous in cells; host or cells: MDA-MB-231
Sequence (P50750 whole entry): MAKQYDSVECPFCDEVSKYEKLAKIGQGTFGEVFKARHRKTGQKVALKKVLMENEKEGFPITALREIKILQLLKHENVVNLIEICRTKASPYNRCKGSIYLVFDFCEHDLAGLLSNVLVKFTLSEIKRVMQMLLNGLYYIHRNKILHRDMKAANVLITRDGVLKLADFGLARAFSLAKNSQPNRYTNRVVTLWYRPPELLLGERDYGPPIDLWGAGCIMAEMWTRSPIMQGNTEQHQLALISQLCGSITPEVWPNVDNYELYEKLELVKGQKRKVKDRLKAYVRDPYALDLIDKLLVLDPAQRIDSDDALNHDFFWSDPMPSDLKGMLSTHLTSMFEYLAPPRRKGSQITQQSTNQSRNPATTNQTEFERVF
run_description: CDK protein degradation activity (Western blotting), CDK9
Format: cell-based
applied_conditions: MDA-MB-231 cells, 0.1 μM, 16 hours, Western blot
property_measured: Enzyme degradation CDK9 (% remaining) @ 0.1 μM (%)

Example entries begin here.
O=C1CC[C@@H](c2cccc(OCC(=O)N3CCC(OCCN4CCN(c5ccc(Nc6ncnc7c6ncn7C6CC(NC(=O)Cc7ccccc7)C6)cc5)CC4)CC3)c2)C(=O)N1 (stereo partly shown)    30
Cc1cccc(C(=O)N[C@H]2C[C@@H](n3cnc4c(NC5CCN(CCC6CCN(c7cccc8c7C(=O)N([C@H]7CCC(=O)CC7=O)C8=O)CC6)CC5)ncnc43)C2)n1    30

P. COc1ccc(C(=O)N2CC(N3CCC4(CC3)CC(N3CCN(c5ccc(Nc6ncnc7c6ncn7[C@H]6C[C@@H](NC(=O)Cc7ccccc7)C6)cc5)CC3)C4)C2)cc1N1CCC(=O)NC1=O
Q. O=C1CC[C@H](N2C(=O)c3cc(F)c(N4CCC5(CC4)CC(N4CCN(c6ccc(Nc7ncnc8c7ncn8[C@H]7C[C@@H](NC(=O)Cc8ccccc8)C7)cc6)CC4)C5)cc3C2=O)C(=O)N1
Which record shows the lower Enzyme degradation CDK9 (% remaining) @ 0.1 μM: the first, P , or the second, Q ? // output: label of the selected item
P
(P: 30%, Q: 60%)

* * *

target_or_system: CDK9 (Homo sapiens)
Construct: endogenous in cells; host or cells: MDA-MB-231
run_description: CDK protein degradation activity (Western blotting), CDK9
Format: cell-based
applied_conditions: MDA-MB-231 cells, 0.1 μM, 16 hours, Western blot
property_measured: Enzyme degradation CDK9 (% remaining) @ 0.1 μM (%)

O=C1CC[C@H](N2C(=O)c3ccc(N4CCC(C(=O)N5CCN(C6CC7(CCN(c8ccc(Nc9ncnc%10c9ncn%10[C@H]9C[C@@H](NC(=O)Cc%10ccccc%10)C9)cc8)CC7)C6)CC5)CC4)cc3C2=O)C(=O)N1    50

a. O=C1CC[C@H](N2C(=O)c3cccc(N4CCC5(CC4)CC(N4CCC(c6ccc(Nc7ncnc8c7ncn8C7CC(NC(=O)Cc8ccccc8)C7)cc6)CC4)C5)c3C2=O)C(=O)N1 (some centres unmarked)
b. Cc1cccc(C(=O)NC2CC(n3cnc4c(NCCCN5CCN(CC6CCN(C(=O)COc7ccc([C@@H]8CCC(=O)NC8=O)cc7)CC6)CC5)ncnc43)C2)n1 (some centres unmarked)
Which record shows the lower Enzyme degradation CDK9 (% remaining) @ 0.1 μM: the first, a , or the second, b ? // output: label of the selected item
a
